Reported GI50 is given for each of the following compounds.
System: OVCAR-4
assay comment: NCI tumour cell line growth inhibition, 48 h
Active and inactive are the calls of the source. No stated cut-off is given here; in the data, active = GI50 up to about 1.1 µM and inactive = higher.

O=Cc1c2c(cc3c1CC1(C3)Cc3cc4c(c(C=O)c3C1)CCC4)CCC2 | 20.9 µM (inactive)
Cc1nc2c(Br)cc(Br)cc2c(=O)n1-c1ccccc1N | > 100 µM (inactive)
CC1CCC2C(C)C3C(CC4C5CC=C6CC(OC7OC(CO)C(O)C(OC8OC(CO)C(O)C(O)C8O)C7OC7OC(C)C(O)C(O)C7O)CCC6(C)C5CCC43C)N2C1 (configuration not stated) | 8.13 µM (inactive)
Nc1ncnc2c1ccn2C/C=C/CO | > 100 µM (inactive)
Cc1ccc(OCC2OC(n3cnc4c(Cl)nc(N)nc43)CC2Oc2ccc(C)cc2)cc1 (configuration not stated) | 21.4 µM (inactive)

Reported GI50 for CCN(CC)CC1CCCCN1CC(=O)N1c2ccccc2NC(=O)c2ccccc21 (configuration not stated) : what is it?
> 100 µM (inactive)

# GI50 lookup, item C(=N\NC1=NCCN1)/c1ccc(-c2cn3cc(/C=N/NC4=NCCN4)ccc3n2)cc1
31 µM (inactive)
